- Test system: S. pneumoniae PN8828
- protocol description: Biofilm inhibition assay
- Type: cell-based
- protocol conditions: PN8828, TSB, 24 h
readout kind: 90% minimal biofilm inhibitory concentration

Record excerpt, results attached:
CO[C@H]1/C=C/O[C@@]2(C)Oc3c(C)c(O)c4c(O)c(c(/C=N/N5CCN(C)CC5)c(O)c4c3C2=O)NC(=O)/C(C)=C\C=C\[C@H](C)[C@H](O)[C@@H](C)[C@@H](O)[C@@H](C)[C@H](OC(C)=O)[C@@H]1C; 0.011 ± 0.007 µM
CCC(CC)O[C@@H]1C=C(C(=O)O)C[C@H](N)[C@H]1NC(C)=O [oseltamivir, Oseltamivir carboxylate]; > 50 µM
COc1cc2oc(-c3ccc(O)cc3O)c(CC=C(C)C)c(=O)c2c(O)c1/C=C/C(C)C; 1.40 ± 0.07 µM
O=C(CCc1ccccc1)C[C@@H]1C[C@@H](c2ccccc2)c2c(cc(/C=C/c3ccccc3)oc2=O)O1; > 50 µM
CC(=O)N[C@H]1[C@H]([C@H](O)[C@H](O)CO)OC(C(=O)O)=C[C@@H]1N=C(N)N; > 50 µM

Consider the record given below.
[ask] I am curious: what 90% minimal biofilm inhibitory concentration value has been reported for CC(=O)N[C@H]1[C@H]([C@H](O)[C@H](O)CO)OC(C(=O)O)=C[C@@H]1O ?
[reply] > 50 µM

====

- System: S. pneumoniae DSM20566 adherence to A549 cells
- protocol description: Adherence inhibition assay on A549 cells
- Format: cell-based
- protocol conditions: Streptococcus pneumoniae, DSM20566, A549, 1.5 h, read-out: concentration giving 50% reduction in adherence levels (AIC50)
readout kind: pIC50
As a rule, pIC50 stands for the negative log10 of the concentration, concentration in M.

[ask] Which pIC50 value is on record for COc1cc2oc(-c3ccc(O)cc3O)c(CC=C(C)C)c(=O)c2c(O)c1/C=C/C(C)C [artocarpin] ?
[reply] 5.12

====

- System: S. pneumoniae CF8919
- protocol description: Biofilm inhibition assay
- Type: cell-based
- protocol conditions: CF8919, TSB, 24 h
readout kind: 90% minimal biofilm inhibitory concentration

CC(=O)N[C@H]1[C@H]([C@H](O)[C@H](O)CO)OC(C(=O)O)=C[C@@H]1N=C(N)N; > 50 µM
CCC(CC)O[C@@H]1C=C(C(=O)O)C[C@H](N)[C@H]1NC(C)=O [oseltamivir, Oseltamivir carboxylate]; > 50 µM
CO[C@H]1/C=C/O[C@@]2(C)Oc3c(C)c(O)c4c(O)c(c(/C=N/N5CCN(C)CC5)c(O)c4c3C2=O)NC(=O)/C(C)=C\C=C\[C@H](C)[C@H](O)[C@@H](C)[C@@H](O)[C@@H](C)[C@H](OC(C)=O)[C@@H]1C; 0.006 ± 0.004 µM

[ask] # input compound: COc1cc2oc(-c3ccc(O)cc3O)c(CC=C(C)C)c(=O)c2c(O)c1/C=C/C(C)C ; wanted: its 90% minimal biofilm inhibitory concentration
[reply] 1.15 ± 0.34 µM

[ask] GET /values?readout=90% minimal biofilm inhibitory concentration&item= O=C(CCc1ccccc1)C[C@@H]1C[C@@H](c2ccccc2)c2c(cc(/C=C/c3ccccc3)oc2=O)O1
[reply] > 50 µM

[ask] # get_value(readout='90% minimal biofilm inhibitory concentration', item= CC(=O)N[C@H]1[C@H]([C@H](O)[C@H](O)CO)OC(C(=O)O)=C[C@@H]1O )
[reply] > 50 µM

====

- Test system: S. pneumoniae CF6937
- protocol description: Minimal bactericidal concentration
- Assay type: cell-based
- protocol conditions: viability reduced by ≥99.9%
Reported values of Bactericidal concentration for individual entries

CC(=O)N[C@H]1[C@H]([C@H](O)[C@H](O)CO)OC(C(=O)O)=C[C@@H]1N=C(N)N [zanamivir]; > 50 µM

[ask] Enter reported Bactericidal concentration observed with S. pneumoniae CF6937 for CCC(CC)O[C@@H]1C=C(C(=O)O)C[C@H](N)[C@H]1NC(C)=O [oseltamivir, Oseltamivir carboxylate]
[reply] > 50 µM

[ask] # value lookup — system S. pneumoniae CF6937, readout Bactericidal concentration, item COc1cc2oc(-c3ccc(O)cc3O)c(CC=C(C)C)c(=O)c2c(O)c1/C=C/C(C)C [artocarpin]
[reply] 3.44 ± 1.53 µM

====

- System: S. pneumoniae D39
- protocol description: Biofilm inhibition assay
- Format: cell-based
- protocol conditions: D39, TSB, 24 h
readout kind: 90% minimal biofilm inhibitory concentration

CCC(CC)O[C@@H]1C=C(C(=O)O)C[C@H](N)[C@H]1NC(C)=O [oseltamivir, Oseltamivir carboxylate]; > 50 µM
CC(=O)N[C@H]1[C@H]([C@H](O)[C@H](O)CO)OC(C(=O)O)=C[C@@H]1O; > 50 µM

Moving on to another molecule below.
[ask] Which 90% minimal biofilm inhibitory concentration is reported for this molecule? COc1cc2oc(-c3ccc(O)cc3O)c(CC=C(C)C)c(=O)c2c(O)c1/C=C/C(C)C
[reply] 2.22 ± 0.76 µM

====

- System: S. pneumoniae D39
- protocol description: Biofilm inhibition assay
- Type: cell-based
- protocol conditions: D39, TSB, 24 h
readout kind: 90% minimal biofilm inhibitory concentration

Solved entries:
O=C(CCc1ccccc1)C[C@@H]1C[C@@H](c2ccccc2)c2c(cc(/C=C/c3ccccc3)oc2=O)O1; > 50 µM
CC(=O)N[C@H]1[C@H]([C@H](O)[C@H](O)CO)OC(C(=O)O)=C[C@@H]1N=C(N)N; > 50 µM

[ask] Fill in the blank: the reported 90% minimal biofilm inhibitory concentration of CO[C@H]1/C=C/O[C@@]2(C)Oc3c(C)c(O)c4c(O)c(c(/C=N/N5CCN(C)CC5)c(O)c4c3C2=O)NC(=O)/C(C)=C\C=C\[C@H](C)[C@H](O)[C@@H](C)[C@@H](O)[C@@H](C)[C@H](OC(C)=O)[C@@H]1C is ____.
[reply] 0.013 ± 0.002 µM

====

These records show MIC for S. pneumoniae PN8828.
# output: bare number, implied unit µM

COc1cc2oc(-c3ccc(O)cc3O)c(CC=C(C)C)c(=O)c2c(O)c1/C=C/C(C)C; 0.99

With those in mind, consider the next compound.
[ask] Param readout = MIC; param system = S. pneumoniae PN8828; param query = CO[C@H]1/C=C/O[C@@]2(C)Oc3c(C)c(O)c4c(O)c(c(/C=N/N5CCN(C)CC5)c(O)c4c3C2=O)NC(=O)/C(C)=C\C=C\[C@H](C)[C@H](O)[C@@H](C)[C@@H](O)[C@@H](C)[C@H](OC(C)=O)[C@@H]1C ; response: value
[reply] 0.005

====

- System: S. pneumoniae DSM14378
- protocol description: Biofilm inhibition assay
- Format: cell-based
- protocol conditions: DSM14378, TSB, 24 h
readout kind: 90% minimal biofilm inhibitory concentration

[ask] Short answer please: 90% minimal biofilm inhibitory concentration, S. pneumoniae DSM14378, entry CO[C@H]1/C=C/O[C@@]2(C)Oc3c(C)c(O)c4c(O)c(c(/C=N/N5CCN(C)CC5)c(O)c4c3C2=O)NC(=O)/C(C)=C\C=C\[C@H](C)[C@H](O)[C@@H](C)[C@@H](O)[C@@H](C)[C@H](OC(C)=O)[C@@H]1C [rifampicin]
[reply] 0.014 ± 0.008 µM

[ask] Report 90% minimal biofilm inhibitory concentration for CC(=O)N[C@H]1[C@H]([C@H](O)[C@H](O)CO)OC(C(=O)O)=C[C@@H]1N=C(N)N [zanamivir] tested on S. pneumoniae DSM14378.
[reply] > 50 µM

[ask] Lab request: please report 90% minimal biofilm inhibitory concentration under test system S. pneumoniae DSM14378 for CC(=O)N[C@H]1[C@H]([C@H](O)[C@H](O)CO)OC(C(=O)O)=C[C@@H]1O [DANA]
[reply] > 50 µM

====

- System: pneumococcal NA of strain DSM20566
- protocol description: Lectin-based hemagglutination
- Assay type: cell-based, S. pneumoniae
- protocol conditions: minimal NA inhibitory concentration
Quick reference for Inhibitory concentration (HA assay) among some compounds
Express the result in µM but write the number alone.

Example results:
CCC(CC)O[C@@H]1C=C(C(=O)O)C[C@H](N)[C@H]1NC(C)=O [oseltamivir, Oseltamivir carboxylate]; 2.1
O=C(CCc1ccccc1)C[C@@H]1C[C@@H](c2ccccc2)c2c(cc(/C=C/c3ccccc3)oc2=O)O1 [katsumadain A]; 3.2

[ask] Inhibitory concentration (HA assay) lookup needed for COc1cc2oc(-c3ccc(O)cc3O)c(CC=C(C)C)c(=O)c2c(O)c1/C=C/C(C)C [artocarpin] , thanks.
[reply] 7.7

[ask] Which Inhibitory concentration (HA assay) is listed for CC(=O)N[C@H]1[C@H]([C@H](O)[C@H](O)CO)OC(C(=O)O)=C[C@@H]1O [DANA] ?
[reply] 45.3

====

- Tested on: pneumococcal NA of strain D39
- protocol description: Lectin-based hemagglutination
- Format: cell-based, S. pneumoniae
- protocol conditions: minimal NA inhibitory concentration; strain D39
readout kind: Inhibitory concentration (HA assay)

Before answering, review these 3 worked examples.
CCC(CC)O[C@@H]1C=C(C(=O)O)C[C@H](N)[C@H]1NC(C)=O [oseltamivir, Oseltamivir carboxylate]; 10.0 ± 0.0 µM
O=C(CCc1ccccc1)C[C@@H]1C[C@@H](c2ccccc2)c2c(cc(/C=C/c3ccccc3)oc2=O)O1 [katsumadain A]; 1.0 ± 0.0 µM
CC(=O)N[C@H]1[C@H]([C@H](O)[C@H](O)CO)OC(C(=O)O)=C[C@@H]1N=C(N)N [zanamivir]; >100 µM

[ask] Entry CC(=O)N[C@H]1[C@H]([C@H](O)[C@H](O)CO)OC(C(=O)O)=C[C@@H]1O [DANA] has what Inhibitory concentration (HA assay)?
[reply] > 100 µM
